molecular target: PI3Kδ (p110δ/p85α)(h) (Homo sapiens); assay: PI3K-HTRF in vitro enzyme assay, PI3Kδ; conditions: enzyme 0.1 μg/ml
Sequence (O00329 whole entry): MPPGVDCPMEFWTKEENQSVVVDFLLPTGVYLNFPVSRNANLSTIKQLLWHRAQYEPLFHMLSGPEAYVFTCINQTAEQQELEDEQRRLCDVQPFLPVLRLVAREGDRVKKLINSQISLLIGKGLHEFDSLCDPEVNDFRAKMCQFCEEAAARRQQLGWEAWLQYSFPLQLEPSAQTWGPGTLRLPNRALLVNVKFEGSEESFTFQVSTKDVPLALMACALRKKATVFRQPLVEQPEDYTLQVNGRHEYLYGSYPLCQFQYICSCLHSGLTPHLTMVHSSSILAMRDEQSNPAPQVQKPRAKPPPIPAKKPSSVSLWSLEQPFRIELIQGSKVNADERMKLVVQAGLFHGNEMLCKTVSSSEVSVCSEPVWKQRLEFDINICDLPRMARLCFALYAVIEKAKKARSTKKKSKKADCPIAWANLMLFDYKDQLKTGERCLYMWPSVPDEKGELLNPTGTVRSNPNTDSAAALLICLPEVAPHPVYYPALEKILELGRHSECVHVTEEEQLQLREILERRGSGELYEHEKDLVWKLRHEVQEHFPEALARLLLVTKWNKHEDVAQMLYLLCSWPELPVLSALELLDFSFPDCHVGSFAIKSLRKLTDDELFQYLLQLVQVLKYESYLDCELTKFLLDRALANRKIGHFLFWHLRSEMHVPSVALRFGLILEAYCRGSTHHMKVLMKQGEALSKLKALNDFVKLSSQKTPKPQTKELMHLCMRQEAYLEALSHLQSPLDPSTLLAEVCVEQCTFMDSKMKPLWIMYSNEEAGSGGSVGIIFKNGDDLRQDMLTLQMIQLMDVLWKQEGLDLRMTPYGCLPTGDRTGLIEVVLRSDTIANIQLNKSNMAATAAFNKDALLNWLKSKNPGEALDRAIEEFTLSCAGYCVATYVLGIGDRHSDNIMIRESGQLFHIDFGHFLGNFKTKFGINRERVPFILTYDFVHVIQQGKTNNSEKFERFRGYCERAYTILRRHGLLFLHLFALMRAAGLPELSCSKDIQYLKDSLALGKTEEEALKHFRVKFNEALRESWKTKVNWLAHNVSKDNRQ
Sequence (P27986 whole entry partner): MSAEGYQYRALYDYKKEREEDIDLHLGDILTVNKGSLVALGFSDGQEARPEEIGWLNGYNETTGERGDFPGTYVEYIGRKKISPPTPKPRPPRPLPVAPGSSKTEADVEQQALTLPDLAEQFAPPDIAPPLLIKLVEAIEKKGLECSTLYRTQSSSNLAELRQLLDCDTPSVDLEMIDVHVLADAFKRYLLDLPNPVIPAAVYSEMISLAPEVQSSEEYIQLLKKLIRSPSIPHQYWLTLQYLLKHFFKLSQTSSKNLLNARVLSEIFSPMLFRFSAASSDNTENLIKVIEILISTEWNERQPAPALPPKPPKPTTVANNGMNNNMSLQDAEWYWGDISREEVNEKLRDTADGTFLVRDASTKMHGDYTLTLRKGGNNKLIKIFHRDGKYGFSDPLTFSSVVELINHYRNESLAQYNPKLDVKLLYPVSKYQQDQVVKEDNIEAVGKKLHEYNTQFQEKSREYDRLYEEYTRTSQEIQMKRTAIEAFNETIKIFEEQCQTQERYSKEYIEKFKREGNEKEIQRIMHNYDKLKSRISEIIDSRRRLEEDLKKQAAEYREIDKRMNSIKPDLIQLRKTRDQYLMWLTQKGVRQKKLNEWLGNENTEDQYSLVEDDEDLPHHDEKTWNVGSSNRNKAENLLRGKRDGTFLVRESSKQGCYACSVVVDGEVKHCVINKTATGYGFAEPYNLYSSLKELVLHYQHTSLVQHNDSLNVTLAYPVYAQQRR
value.type: pIC50
Units for pIC50: none; it is -log10 of a concentration expressed in mol/L.

Prompt: Any idea what its pIC50 is? The compound is `C[C@H](Nc1ncnc2cccc(F)c12)c1cc2cccc(-c3cnc(F)nc3)c2c(=O)n1-c1ccccc1`
Completion: 7.74

Prompt: Any idea what its pIC50 is? The compound is `CC[C@H](Nc1ncnc2ccc(C#N)cc12)c1cc2cccc(-c3cncnc3)c2c(=O)n1-c1ccccc1`
Completion: 9.00

Prompt: Any idea what its pIC50 is? The compound is `CC[C@H](Nc1ncnc2ccc(C#N)cc12)c1cc2cccc(-c3cnc(OC)nc3)c2c(=O)n1-c1ccccc1`
Completion: 8.70

Prompt: Any idea what its pIC50 is? The compound is `C[C@H](Nc1ncnc2ccc(C#N)cc12)c1nc2cccc(-c3cncnc3)c2c(=O)n1-c1ccccc1`
Completion: 7.70

Prompt: Any idea what its pIC50 is? The compound is `CCC[C@H](Nc1ncnc2ccc(C#N)cc12)c1nc2cccc(-c3cnc(OCC)nc3)c2c(=O)n1-c1ccccc1`
Completion: 7.80

Prompt: Any idea what its pIC50 is? The compound is `CCC[C@H](Nc1ncnc2ccc(C#N)cc12)c1nc2cccc(-c3cnc(OC)nc3)c2c(=O)n1-c1ccccc1`
Completion: 7.77

Prompt: Any idea what its pIC50 is? The compound is `Cc1ncc(-c2cccc3nc([C@H](C)Nc4ncnc5ccc(C#N)cc45)n(-c4ccccc4)c(=O)c23)cn1`
Completion: 7.66
